Some compounds, each annotated with its measured IC50.
Biological target: EGFR L858R/T790M/C797S (Homo sapiens, UniProt P00533, C797S/L858R/T790M)
Sequence (P00533 25-1210 T790M/C797S/L858R): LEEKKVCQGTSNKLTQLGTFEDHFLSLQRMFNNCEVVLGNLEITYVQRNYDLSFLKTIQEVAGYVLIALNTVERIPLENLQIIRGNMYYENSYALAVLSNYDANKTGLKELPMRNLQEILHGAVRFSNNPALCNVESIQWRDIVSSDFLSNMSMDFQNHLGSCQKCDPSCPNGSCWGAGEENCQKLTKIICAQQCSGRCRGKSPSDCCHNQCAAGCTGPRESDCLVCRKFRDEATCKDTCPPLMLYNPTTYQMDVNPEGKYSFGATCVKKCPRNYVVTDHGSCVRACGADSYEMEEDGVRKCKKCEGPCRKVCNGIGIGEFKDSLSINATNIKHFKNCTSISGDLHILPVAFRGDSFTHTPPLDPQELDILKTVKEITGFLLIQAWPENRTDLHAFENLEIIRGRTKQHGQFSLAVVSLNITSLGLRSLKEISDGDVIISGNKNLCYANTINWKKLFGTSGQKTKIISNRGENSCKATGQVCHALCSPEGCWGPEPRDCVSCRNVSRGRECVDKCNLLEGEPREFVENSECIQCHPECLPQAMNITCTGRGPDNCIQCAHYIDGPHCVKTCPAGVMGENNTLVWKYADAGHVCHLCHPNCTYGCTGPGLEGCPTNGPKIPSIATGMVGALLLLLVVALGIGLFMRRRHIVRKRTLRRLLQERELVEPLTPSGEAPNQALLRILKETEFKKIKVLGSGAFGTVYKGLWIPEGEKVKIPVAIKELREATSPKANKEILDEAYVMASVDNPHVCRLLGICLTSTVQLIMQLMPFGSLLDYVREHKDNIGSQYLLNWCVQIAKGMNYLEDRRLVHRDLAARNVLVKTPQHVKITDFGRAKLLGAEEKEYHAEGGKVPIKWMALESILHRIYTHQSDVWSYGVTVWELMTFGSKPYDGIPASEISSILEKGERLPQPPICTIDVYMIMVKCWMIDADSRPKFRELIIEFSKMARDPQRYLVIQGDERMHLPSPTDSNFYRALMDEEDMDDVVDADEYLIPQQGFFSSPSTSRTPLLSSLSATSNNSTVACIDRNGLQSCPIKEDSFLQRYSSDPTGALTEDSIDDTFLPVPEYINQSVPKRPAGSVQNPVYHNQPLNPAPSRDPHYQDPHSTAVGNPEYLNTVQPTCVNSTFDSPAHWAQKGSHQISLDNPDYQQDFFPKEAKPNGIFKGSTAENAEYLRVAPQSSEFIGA
Assay: Biochemical EGFR kinase assay (Lance Ultra TR-FRET), triple mutant L858R/T790M/C797S
Settings: IC50 L858R/T790M/C797S (nM) 100 μM ATP, 100 μM ATP
Give your result in nM as a bare value.

> print(dat)
                                   compound  result
1  O=S(=O)(C1CC1)n1cc(-c2nccc(Nc3cc(N[C@H]4CC[C@@H](CO)CC4)c(-c4ccc(CN5CCC(O)CC5)cn4)cn3)n2)cn1 [Example 99]     0.1
2  C[C@]1(O)CC[C@@H](Nc2cc(Nc3ccnc(-c4cnn(S(=O)(=O)C5CC5)c4)n3)ncc2-c2ccc(N3CCOCC3)nn2)CC1 [Example 43]     2.7

Now consider the entry below.
Task: Hi! What's the reported IC50 for CC(C)N1CCN(Cc2ccc(-c3cnc(Nc4ccnc(-c5cnn(S(=O)(=O)C6CC6)c5)n4)cc3N[C@H]3CC[C@@](C)(O)CC3)nc2)CC1 [Example 34] on EGFR L858R/T790M/C797S (Homo sapiens, UniProt P00533, C797S/L858R/T790M)?
Output: 0.3

====

Target: EGFR L858R/T790M/C797S (Homo sapiens, UniProt P00533, C797S/L858R/T790M)
Test: Biochemical EGFR kinase assay (Lance Ultra TR-FRET), triple mutant L858R/T790M/C797S
Settings: ATP at Km; read-out: IC50 L858R/T790M/C797S, Km ATP
READOUT_LABEL: IC50 (nM)
Give your result in nM as a bare value.

Guide cases for IC50, answers given:
> print(dat)
                                   compound  result
1  CC(O)(c1ccc(-c2cnc(Nc3ccnc(-c4cnn(S(=O)(=O)C5CC5)c4)n3)cc2NC2CCC(F)CC2)nc1)C(F)(F)F (stereo not shown) [Example 265]      22
2  CC(O)(c1ccc(-c2cnc(Nc3ccnc(-c4cnn(S(=O)(=O)C5CC5)c4)n3)cc2NC2CCC(F)CC2)nc1)C(F)(F)F (stereo not shown) [Example 266]    18.6
3  CN1CCC(Oc2ccc(-c3cnc(Nc4ccnc(-c5cnn(S(=O)(=O)C6CC6)c5)n4)cc3NC3CCC(F)(F)CC3)nc2)CC1 [Example 255]    0.03
4  CN1CCN(C(=O)c2ccc(-c3cnc(Nc4ccnc(-c5cnn(S(=O)(=O)C6CC6)c5)n4)cc3N[C@H]3CC[C@@](C)(O)CC3)nc2)CC1 [Example 199]     0.1
5  CC(C)(O)[C@H]1CC[C@@H](Nc2cc(Nc3ccnc(-c4cnn(S(=O)(=O)C5CC5)c4)n3)ncc2-c2ccc(OCCO)cn2)CC1 [Example 207]     0.3
6  O=S(=O)(C1CC1)n1cc(-c2nccc(Nc3cc(NC4CCC(F)CC4)c(-c4ccc(N5CCC(F)(F)CC5)nn4)cn3)n2)cn1 (stereo not shown) [Example 267]    21.7

Now consider the entry below.
Task: Hi! What's the reported IC50 for O=S(=O)(C1CC1)n1cc(-c2nccc(Nc3cc(N[C@H]4CC[C@@H](CO)CC4)c(-c4cccc(F)n4)cn3)n2)cn1 [Example 272] on EGFR L858R/T790M/C797S (Homo sapiens, UniProt P00533, C797S/L858R/T790M)?
Output: 0.1
